SYSTEM: T1, recombinant human domain 1-3His6 of the cation-independent mannose-6-phosphate receptor (human, UniProt P11717 41-467)
T1 construct: Biotinylated (NHS-PEG4-biotin) for BLI; Glycosylated; also called hDom1-3His6; hCI-M6PRD1-D3
PROTOCOL_TEXT: BLI exp 2, dissoc pH 5
Outcome: class 1 for kon of at least 700000 M⁻¹ s⁻¹; class 0 for anything lower.

Reference set, count: 3
I'd appreciate it if you could say whether anti-CI-M6PR VHH9 (VHH, His6-tagged; made in Pichia pastoris) VHH: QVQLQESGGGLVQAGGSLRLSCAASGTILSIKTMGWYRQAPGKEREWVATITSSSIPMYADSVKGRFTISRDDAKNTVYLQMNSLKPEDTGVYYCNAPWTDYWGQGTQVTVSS has kon at least equal to 700000 M⁻¹ s⁻¹.
class 0

I'd appreciate it if you could say whether anti-CI-M6PR VHH5 (VHH, His6-tagged; made in Pichia pastoris, later also in E. coli WK6) VHH: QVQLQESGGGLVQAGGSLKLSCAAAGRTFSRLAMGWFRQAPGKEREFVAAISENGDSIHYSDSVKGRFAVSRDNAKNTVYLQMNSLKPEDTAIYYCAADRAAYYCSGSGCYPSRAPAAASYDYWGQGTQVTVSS has kon at least equal to 700000 M⁻¹ s⁻¹.
class 1

I'd appreciate it if you could say whether anti-CI-M6PR VHH6 (VHH, His6-tagged; made in E. coli) VHH: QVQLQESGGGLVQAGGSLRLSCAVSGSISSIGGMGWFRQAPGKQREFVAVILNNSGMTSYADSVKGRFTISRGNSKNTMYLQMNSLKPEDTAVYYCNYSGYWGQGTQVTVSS has kon at least equal to 700000 M⁻¹ s⁻¹.
class 0

---
I'd appreciate it if you could say whether anti-CI-M6PR VHH4 (VHH, His6-tagged; made in Pichia pastoris) VHH: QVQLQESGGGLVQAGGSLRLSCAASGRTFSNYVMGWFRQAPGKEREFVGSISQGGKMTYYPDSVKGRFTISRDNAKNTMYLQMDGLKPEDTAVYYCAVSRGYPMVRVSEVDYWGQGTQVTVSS has kon at least equal to 700000 M⁻¹ s⁻¹.
class 1

I'd appreciate it if you could say whether anti-CI-M6PR VHH10 (VHH, His6-tagged; made in Pichia pastoris) VHH: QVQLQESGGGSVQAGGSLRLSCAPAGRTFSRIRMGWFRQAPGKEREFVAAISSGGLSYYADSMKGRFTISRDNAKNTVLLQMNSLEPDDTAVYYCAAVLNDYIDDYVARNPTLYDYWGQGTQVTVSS has kon at least equal to 700000 M⁻¹ s⁻¹.
class 0

I'd appreciate it if you could say whether anti-CI-M6PR VHH3 (VHH, His6-tagged; made in Pichia pastoris) VHH: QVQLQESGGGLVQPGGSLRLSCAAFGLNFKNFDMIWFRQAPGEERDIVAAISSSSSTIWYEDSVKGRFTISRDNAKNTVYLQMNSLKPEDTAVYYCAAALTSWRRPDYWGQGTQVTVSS has kon at least equal to 700000 M⁻¹ s⁻¹.
class 0

I'd appreciate it if you could say whether anti-CI-M6PR VHH7 (VHH, His6-tagged (Pichia pastoris)) VHH: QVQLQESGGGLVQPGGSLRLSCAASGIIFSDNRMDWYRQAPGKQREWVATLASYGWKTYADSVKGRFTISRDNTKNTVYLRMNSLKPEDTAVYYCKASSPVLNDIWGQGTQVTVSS has kon at least equal to 700000 M⁻¹ s⁻¹.
class 0

I'd appreciate it if you could say whether anti-CI-M6PR VHH8 (VHH, His6-tagged (Pichia pastoris)) VHH: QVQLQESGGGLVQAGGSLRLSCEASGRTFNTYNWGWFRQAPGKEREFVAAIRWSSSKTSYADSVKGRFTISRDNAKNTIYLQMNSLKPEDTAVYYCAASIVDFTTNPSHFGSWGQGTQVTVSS has kon at least equal to 700000 M⁻¹ s⁻¹.
class 1

I'd appreciate it if you could say whether anti-CI-M6PR VHH2 (VHH, His6-tagged; made in Pichia pastoris) VHH: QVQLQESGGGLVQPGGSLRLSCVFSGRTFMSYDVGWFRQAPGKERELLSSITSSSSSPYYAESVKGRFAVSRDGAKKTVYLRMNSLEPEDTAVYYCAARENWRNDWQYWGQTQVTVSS has kon at least equal to 700000 M⁻¹ s⁻¹.
class 1

I'd appreciate it if you could say whether anti-CI-M6PR VHH11 (VHH, His6-tagged; made in Pichia pastoris) VHH: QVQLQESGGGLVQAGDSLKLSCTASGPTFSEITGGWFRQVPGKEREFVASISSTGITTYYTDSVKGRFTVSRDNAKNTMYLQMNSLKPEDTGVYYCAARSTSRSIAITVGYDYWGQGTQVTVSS has kon at least equal to 700000 M⁻¹ s⁻¹.
class 0
